Would you mind telling me the reported A2 ± SE (maximum inhibition from dose-response curve) of each entry?
Target: GluN1-1a/GluN2B NMDAR (wildtype) (Rattus norvegicus, UniProt P35439+Q00960)
Format: cell-based
Conditions: TEVC, −70 mV, wildtype, flexible A2
One number for each entry, in %.

The following compounds have reported results that may help.
{"COMPOUND": "C[C@@H]1[C@H](O)c2ccc(O)cc2CCN1CCCCc1ccccc1 [compound 2]", "DATA VALUE": 97}
{"COMPOUND": "Oc1ccc2c(c1)CCN(CCCCc1ccccc1)C[C@@H]2O [compound (R)-1]", "DATA VALUE": 93}
{"COMPOUND": "Oc1ccc2c(c1)CCN(CCCCc1ccccc1)C[C@H]2O [compound (S)-1]", "DATA VALUE": 95}
{"COMPOUND": "Oc1ccc2c(c1)CCN(CCCCc1ccccc1)CC2 [compound 3]", "DATA VALUE": 92}
{"COMPOUND": "COc1ccc2c(c1)CCN(CCCCc1ccccc1)CC2O (stereo not shown) [compound 4]", "DATA VALUE": 100}

# per-item lookup of A2 ± SE (maximum inhibition from dose-response curve); items listed below
1. Oc1ccc2c(c1)CCN(CCCCc1ccccc1)CC2O (racemic) [compound rac-1]
2. CC(C(O)c1ccc(O)cc1)N1CCC(Cc2ccccc2)CC1 (stereo not shown) [ifenprodil, reference compound]

93
94

----------
Target: GluN1-1a WT/GluN2B I111A (Rattus norvegicus, UniProt P35439+Q00960, I111A)
Assay: cell-based
MEASURED PARAMETER: pIC50
Give bare numbers, as −log10 of the molar value.

The following molecules have reported results that may help.
{"MOLECULE": "C[C@@H]1[C@H](O)c2ccc(O)cc2CCN1CCCCc1ccccc1", "DATA VALUE": 6.42}
{"MOLECULE": "Oc1ccc2c(c1)CCN(CCCCc1ccccc1)C[C@H]2O [compound (S)-1]", "DATA VALUE": 5.81}

pIC50 lookup needed for Oc1ccc2c(c1)CCN(CCCCc1ccccc1)C[C@@H]2O [compound (R)-1] , thanks. 6.86

----------
Would you mind telling me the reported p (slope) of each entry?
Target: GluN1-1a WT/GluN2B I111A (Rattus norvegicus, UniProt P35439+Q00960, I111A)
Settings: GluN2B I111A

{"COMPOUND": "Oc1ccc2c(c1)CCN(CCCCc1ccccc1)C[C@@H]2O [compound (R)-1]", "TARGET SYSTEM": "GluN1-1a WT/GluN2B I111A (Rattus norvegicus, UniProt P35439+Q00960, I111A)", "p (slope)": 0.92}
{"COMPOUND": "C[C@@H]1[C@H](O)c2ccc(O)cc2CCN1CCCCc1ccccc1", "TARGET SYSTEM": "GluN1-1a WT/GluN2B I111A (Rattus norvegicus, UniProt P35439+Q00960, I111A)", "p (slope)": 0.86}
{"COMPOUND": "CC(C(O)c1ccc(O)cc1)N1CCC(Cc2ccccc2)CC1 (stereo not shown) [ifenprodil, reference compound]", "TARGET SYSTEM": "GluN1-1a WT/GluN2B I111A (Rattus norvegicus, UniProt P35439+Q00960, I111A)", "p (slope)": 0.90}

Shifting focus to the compound that follows.
p (slope) lookup needed for Oc1ccc2c(c1)CCN(CCCCc1ccccc1)C[C@H]2O [compound (S)-1] , thanks. 0.89

----------
Would you mind telling me the reported IC50 of each entry?
Target: GluN1-1a WT/GluN2B F176Y (Rattus norvegicus, UniProt P35439+Q00960, F176Y)
Sequence (Q00960 27-1482 F176Y, other chains not shown): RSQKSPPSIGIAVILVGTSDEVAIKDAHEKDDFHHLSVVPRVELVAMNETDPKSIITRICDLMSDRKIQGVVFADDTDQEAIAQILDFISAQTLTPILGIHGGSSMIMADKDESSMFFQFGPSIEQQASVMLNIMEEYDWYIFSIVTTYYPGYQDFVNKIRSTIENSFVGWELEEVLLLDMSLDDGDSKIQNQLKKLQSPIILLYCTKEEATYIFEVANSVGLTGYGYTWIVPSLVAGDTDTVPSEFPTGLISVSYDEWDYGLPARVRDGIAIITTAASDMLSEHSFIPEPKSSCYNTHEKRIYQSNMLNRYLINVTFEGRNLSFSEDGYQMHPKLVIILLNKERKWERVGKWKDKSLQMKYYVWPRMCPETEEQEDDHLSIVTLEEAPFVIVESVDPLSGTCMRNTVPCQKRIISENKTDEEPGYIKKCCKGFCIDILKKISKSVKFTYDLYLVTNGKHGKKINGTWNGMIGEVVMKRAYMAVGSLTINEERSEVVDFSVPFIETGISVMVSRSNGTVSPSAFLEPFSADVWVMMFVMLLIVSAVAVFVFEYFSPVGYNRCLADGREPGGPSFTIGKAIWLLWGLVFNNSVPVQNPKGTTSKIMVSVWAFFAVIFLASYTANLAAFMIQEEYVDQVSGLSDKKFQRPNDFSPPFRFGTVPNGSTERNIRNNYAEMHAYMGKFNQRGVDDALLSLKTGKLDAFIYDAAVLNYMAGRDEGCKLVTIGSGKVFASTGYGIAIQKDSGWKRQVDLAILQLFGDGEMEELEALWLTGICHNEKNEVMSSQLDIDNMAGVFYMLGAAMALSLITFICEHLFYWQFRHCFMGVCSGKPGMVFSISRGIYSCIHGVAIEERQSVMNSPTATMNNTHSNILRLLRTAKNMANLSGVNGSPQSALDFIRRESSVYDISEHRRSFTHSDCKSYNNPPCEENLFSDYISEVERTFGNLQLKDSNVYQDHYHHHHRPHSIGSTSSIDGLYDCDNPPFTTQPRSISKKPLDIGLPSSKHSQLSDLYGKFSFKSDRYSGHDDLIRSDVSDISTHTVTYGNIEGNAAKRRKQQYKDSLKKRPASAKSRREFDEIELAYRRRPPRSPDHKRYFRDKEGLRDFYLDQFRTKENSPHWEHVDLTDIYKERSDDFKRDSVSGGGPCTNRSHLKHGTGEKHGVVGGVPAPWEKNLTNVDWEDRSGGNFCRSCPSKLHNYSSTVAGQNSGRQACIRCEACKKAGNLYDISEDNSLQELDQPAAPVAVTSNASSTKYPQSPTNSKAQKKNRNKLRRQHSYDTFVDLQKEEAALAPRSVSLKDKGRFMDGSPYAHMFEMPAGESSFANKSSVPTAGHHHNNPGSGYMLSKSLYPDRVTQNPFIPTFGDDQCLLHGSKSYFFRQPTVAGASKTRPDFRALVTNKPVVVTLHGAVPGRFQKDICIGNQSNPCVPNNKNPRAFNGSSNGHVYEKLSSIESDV
Experiment: cell-based

The following molecules have reported results that may help.
{"MOLECULE": "Oc1ccc2c(c1)CCN(CCCCc1ccccc1)C[C@H]2O [compound (S)-1]", "TARGET SYSTEM": "GluN1-1a WT/GluN2B F176Y (Rattus norvegicus, UniProt P35439+Q00960, F176Y)", "DATA VALUE": "261 nM"}
{"MOLECULE": "C[C@@H]1[C@H](O)c2ccc(O)cc2CCN1CCCCc1ccccc1", "TARGET SYSTEM": "GluN1-1a WT/GluN2B F176Y (Rattus norvegicus, UniProt P35439+Q00960, F176Y)", "DATA VALUE": "84 nM"}

Shifting focus to the molecule that follows.
IC50 lookup needed for Oc1ccc2c(c1)CCN(CCCCc1ccccc1)C[C@@H]2O [compound (R)-1] , thanks. 107 nM

----------
Target: GluN1-1a/GluN2A NMDAR (Rattus norvegicus, UniProt P35439+Q00959)
Test: cell-based
Details: read-out: ion current inhibition % ± SEM, GluN2A
MEASURED PARAMETER: inhibition at 10 µM (%)
Give bare numbers, in %.

{"COMPOUND": "Oc1ccc2c(c1)CCN(CCCCc1ccccc1)C[C@@H]2O [compound (R)-1]", "DATA VALUE": 4}
{"COMPOUND": "CC(C(O)c1ccc(O)cc1)N1CCC(Cc2ccccc2)CC1 (stereo not shown) [ifenprodil, reference compound]", "DATA VALUE": 5}
{"COMPOUND": "Oc1ccc2c(c1)CCN(CCCCc1ccccc1)C[C@H]2O [compound (S)-1]", "DATA VALUE": 6}

Shifting focus to the compound that follows.
inhibition at 10 µM lookup needed for C[C@@H]1[C@H](O)c2ccc(O)cc2CCN1CCCCc1ccccc1 [compound 2] , thanks. 15

----------
Would you mind telling me the reported A2 ± SE of each entry?
Target: GluN1-1a WT/GluN2B I111A (Rattus norvegicus, UniProt P35439+Q00960, I111A)
Conditions: GluN2B I111A, flexible A2
Include the unit right after the number.

The following compounds have reported results that may help.
{"COMPOUND": "Oc1ccc2c(c1)CCN(CCCCc1ccccc1)C[C@@H]2O [compound (R)-1]", "TARGET SYSTEM": "GluN1-1a WT/GluN2B I111A (Rattus norvegicus, UniProt P35439+Q00960, I111A)", "A2 ± SE": "66 ± 3%"}
{"COMPOUND": "Oc1ccc2c(c1)CCN(CCCCc1ccccc1)C[C@H]2O [compound (S)-1]", "TARGET SYSTEM": "GluN1-1a WT/GluN2B I111A (Rattus norvegicus, UniProt P35439+Q00960, I111A)", "A2 ± SE": "73 ± 6%"}
{"COMPOUND": "CC(C(O)c1ccc(O)cc1)N1CCC(Cc2ccccc2)CC1 (stereo not shown) [ifenprodil, reference compound]", "TARGET SYSTEM": "GluN1-1a WT/GluN2B I111A (Rattus norvegicus, UniProt P35439+Q00960, I111A)", "A2 ± SE": "68 ± 7%"}

Shifting focus to the compound that follows.
A2 ± SE lookup needed for C[C@@H]1[C@H](O)c2ccc(O)cc2CCN1CCCCc1ccccc1 , thanks. 96 ± 4%

----------
Molecular target: GluN1-1a Y109S/GluN2B WT (Rattus norvegicus, UniProt P35439+Q00960, Y109S)
Sequence (Q00960 27-1482, other chains not shown): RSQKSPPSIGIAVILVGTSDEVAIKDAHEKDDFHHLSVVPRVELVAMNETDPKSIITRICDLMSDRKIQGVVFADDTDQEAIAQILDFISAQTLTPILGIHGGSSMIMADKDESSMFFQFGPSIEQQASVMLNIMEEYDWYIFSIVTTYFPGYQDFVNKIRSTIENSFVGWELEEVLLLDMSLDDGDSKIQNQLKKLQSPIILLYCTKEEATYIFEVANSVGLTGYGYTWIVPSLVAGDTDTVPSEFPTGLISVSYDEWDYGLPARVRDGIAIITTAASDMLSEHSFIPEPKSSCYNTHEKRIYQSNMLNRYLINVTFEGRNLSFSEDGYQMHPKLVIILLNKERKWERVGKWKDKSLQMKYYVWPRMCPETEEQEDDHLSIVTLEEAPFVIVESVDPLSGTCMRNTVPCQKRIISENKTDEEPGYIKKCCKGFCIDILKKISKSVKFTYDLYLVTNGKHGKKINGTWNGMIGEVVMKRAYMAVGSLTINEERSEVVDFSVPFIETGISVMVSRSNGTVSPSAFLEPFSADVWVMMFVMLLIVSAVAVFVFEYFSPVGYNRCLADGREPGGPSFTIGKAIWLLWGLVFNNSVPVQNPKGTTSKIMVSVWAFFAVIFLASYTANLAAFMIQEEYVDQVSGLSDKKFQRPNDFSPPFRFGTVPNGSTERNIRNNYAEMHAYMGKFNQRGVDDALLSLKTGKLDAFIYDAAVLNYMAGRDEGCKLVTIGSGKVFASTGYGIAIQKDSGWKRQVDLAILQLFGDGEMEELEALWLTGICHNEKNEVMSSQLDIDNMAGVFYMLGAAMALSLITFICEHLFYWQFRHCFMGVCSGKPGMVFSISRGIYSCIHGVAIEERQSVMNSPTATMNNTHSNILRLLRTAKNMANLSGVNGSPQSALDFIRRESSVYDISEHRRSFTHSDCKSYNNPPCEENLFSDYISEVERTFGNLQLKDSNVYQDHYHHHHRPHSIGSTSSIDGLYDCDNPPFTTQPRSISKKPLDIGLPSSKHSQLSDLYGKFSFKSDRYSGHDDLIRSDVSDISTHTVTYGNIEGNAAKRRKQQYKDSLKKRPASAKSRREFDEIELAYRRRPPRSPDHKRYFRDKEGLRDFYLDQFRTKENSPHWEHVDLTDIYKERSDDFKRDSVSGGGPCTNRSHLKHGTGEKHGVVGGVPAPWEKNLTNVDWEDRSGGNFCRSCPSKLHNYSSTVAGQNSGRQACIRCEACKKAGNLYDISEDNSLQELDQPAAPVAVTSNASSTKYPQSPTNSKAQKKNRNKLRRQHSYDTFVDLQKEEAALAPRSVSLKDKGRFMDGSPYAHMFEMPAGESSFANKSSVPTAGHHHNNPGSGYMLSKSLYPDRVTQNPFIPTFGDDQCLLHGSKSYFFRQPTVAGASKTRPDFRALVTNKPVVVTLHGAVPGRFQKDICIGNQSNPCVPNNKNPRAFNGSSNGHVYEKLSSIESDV
Details: GluN1-1a Y109S
MEASURED PARAMETER: p (slope)
Answers are plain numbers.

The following compounds have reported results that may help.
{"COMPOUND": "CC(C(O)c1ccc(O)cc1)N1CCC(Cc2ccccc2)CC1 (stereo not shown) [ifenprodil, reference compound]", "p (slope)": 0.88}
{"COMPOUND": "Oc1ccc2c(c1)CCN(CCCCc1ccccc1)C[C@H]2O [compound (S)-1]", "p (slope)": 0.85}
{"COMPOUND": "Oc1ccc2c(c1)CCN(CCCCc1ccccc1)C[C@@H]2O [compound (R)-1]", "p (slope)": 1.42}

Shifting focus to the compound that follows.
p (slope) lookup needed for C[C@@H]1[C@H](O)c2ccc(O)cc2CCN1CCCCc1ccccc1 , thanks. 0.86

----------
Would you mind telling me the reported p (slope) of each entry?
Target: GluN1-1a WT/GluN2B E236A (Rattus norvegicus, UniProt P35439+Q00960, E236A)
Sequence (Q00960 27-1482 E236A, other chains not shown): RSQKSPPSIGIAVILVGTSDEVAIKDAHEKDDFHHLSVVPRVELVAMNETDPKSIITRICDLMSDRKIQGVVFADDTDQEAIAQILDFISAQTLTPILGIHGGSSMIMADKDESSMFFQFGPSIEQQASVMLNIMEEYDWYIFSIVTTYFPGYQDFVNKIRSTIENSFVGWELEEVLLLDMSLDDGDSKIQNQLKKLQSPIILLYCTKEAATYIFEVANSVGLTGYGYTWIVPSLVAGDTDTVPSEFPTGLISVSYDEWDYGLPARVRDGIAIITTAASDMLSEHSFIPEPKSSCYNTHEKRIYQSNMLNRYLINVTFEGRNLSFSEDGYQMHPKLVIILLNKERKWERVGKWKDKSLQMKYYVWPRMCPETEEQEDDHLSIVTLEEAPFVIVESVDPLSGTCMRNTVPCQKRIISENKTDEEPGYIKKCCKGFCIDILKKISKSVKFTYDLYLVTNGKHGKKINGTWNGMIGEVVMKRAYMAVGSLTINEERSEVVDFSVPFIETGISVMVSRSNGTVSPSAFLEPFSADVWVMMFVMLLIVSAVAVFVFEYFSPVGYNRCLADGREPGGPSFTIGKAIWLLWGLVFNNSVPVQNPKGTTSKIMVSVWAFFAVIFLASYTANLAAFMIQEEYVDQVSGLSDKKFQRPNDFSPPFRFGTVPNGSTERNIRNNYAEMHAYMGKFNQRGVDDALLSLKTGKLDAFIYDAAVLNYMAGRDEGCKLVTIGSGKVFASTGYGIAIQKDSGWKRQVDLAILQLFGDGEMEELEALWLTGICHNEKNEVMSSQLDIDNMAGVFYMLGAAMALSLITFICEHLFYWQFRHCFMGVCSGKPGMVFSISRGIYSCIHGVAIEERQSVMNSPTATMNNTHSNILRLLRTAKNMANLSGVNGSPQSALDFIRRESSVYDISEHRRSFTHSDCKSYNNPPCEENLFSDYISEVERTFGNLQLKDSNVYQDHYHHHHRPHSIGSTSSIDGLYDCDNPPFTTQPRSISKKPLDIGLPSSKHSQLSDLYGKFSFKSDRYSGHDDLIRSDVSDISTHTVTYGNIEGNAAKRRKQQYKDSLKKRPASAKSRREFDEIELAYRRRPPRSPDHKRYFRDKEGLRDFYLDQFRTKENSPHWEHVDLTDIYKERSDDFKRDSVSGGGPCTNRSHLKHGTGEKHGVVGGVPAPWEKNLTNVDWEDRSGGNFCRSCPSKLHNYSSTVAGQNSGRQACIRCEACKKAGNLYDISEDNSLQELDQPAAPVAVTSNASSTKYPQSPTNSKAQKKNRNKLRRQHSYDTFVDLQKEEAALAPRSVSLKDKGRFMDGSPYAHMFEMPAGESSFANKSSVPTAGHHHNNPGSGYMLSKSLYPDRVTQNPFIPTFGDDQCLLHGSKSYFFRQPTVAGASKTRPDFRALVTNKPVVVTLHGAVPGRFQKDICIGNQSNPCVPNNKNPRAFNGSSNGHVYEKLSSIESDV
Settings: GluN2B E236A
Numbers only.

{"MOLECULE": "CC(C(O)c1ccc(O)cc1)N1CCC(Cc2ccccc2)CC1 (stereo not shown) [ifenprodil, reference compound]", "TARGET SYSTEM": "GluN1-1a WT/GluN2B E236A (Rattus norvegicus, UniProt P35439+Q00960, E236A)", "p (slope)": 1.18}

# per-item lookup of p (slope); items listed below
1. Oc1ccc2c(c1)CCN(CCCCc1ccccc1)C[C@@H]2O [compound (R)-1]
2. C[C@@H]1[C@H](O)c2ccc(O)cc2CCN1CCCCc1ccccc1
3. Oc1ccc2c(c1)CCN(CCCCc1ccccc1)C[C@H]2O [compound (S)-1]

1. 1.32
2. 1.09
3. 0.99

----------
Would you mind telling me the reported A2 ± SE of each entry?
Target: GluN1-1a WT/GluN2B E236A (Rattus norvegicus, UniProt P35439+Q00960, E236A)
Conditions: GluN2B E236A, flexible A2
One number for each entry, in %.

The following compounds have reported results that may help.
{"COMPOUND": "Oc1ccc2c(c1)CCN(CCCCc1ccccc1)C[C@@H]2O [compound (R)-1]", "A2 ± SE (%)": 85}
{"COMPOUND": "C[C@@H]1[C@H](O)c2ccc(O)cc2CCN1CCCCc1ccccc1 [compound 2]", "A2 ± SE (%)": 95}
{"COMPOUND": "Oc1ccc2c(c1)CCN(CCCCc1ccccc1)C[C@H]2O [compound (S)-1]", "A2 ± SE (%)": 96}

Shifting focus to the compound that follows.
Form entry - test system: GluN1-1a WT/GluN2B E236A (Rattus norvegicus, UniProt P35439+Q00960, E236A); read-out: A2 ± SE; compound: CC(C(O)c1ccc(O)cc1)N1CCC(Cc2ccccc2)CC1 (stereo not shown) [ifenprodil, reference compound] 88
